- Test system: Histophilus somni
- Experimental Details: minimum inhibitory concentration (MIC)
- Run Parameters: isolate (source animal id): 132
# minimum inhibitory concentration per record follows
Observation Type: minimum inhibitory concentration (µg/mL)

• CS(=O)(=O)c1ccc([C@@H](O)[C@@H](CF)NC(=O)C(Cl)Cl)cc1 = 0.5
• C=C[C@]1(C)C[C@@H](OC(=O)CSCCN(CC)CC)[C@]2(C)[C@H](C)CC[C@]3(CCC(=O)[C@H]32)[C@@H](C)[C@@H]1O = 2

* * *

- Test system: Escherichia coli
- Experimental Details: minimum inhibitory concentration (MIC)
- Run Parameters: isolate (source animal id): 99
Observation Type: minimum inhibitory concentration

- CCC[C@@H]1C[C@@H](C(=O)N[C@@H]([C@H]2O[C@H](SC)[C@H](O)[C@@H](O)[C@H]2O)[C@H](C)Cl)N(C)C1: > 16 µg/mL
- COc1cc(NS(=O)(=O)c2ccc(N)cc2)nc(OC)n1: ≤ 256 µg/mL
- CN1C[C@@H]2C[C@H]1CN2c1cc2c(cc1F)c(=O)c(C(=O)O)cn2C1CC1: ≤ 0.12 µg/mL
- CC[C@H]1OC(=O)C[C@@H](O)[C@H](C)[C@@H](O[C@@H]2O[C@H](C)[C@@H](O)[C@H](N(C)C)[C@H]2O)[C@@H](CCN2CCCCC2)C[C@@H](C)C(=O)/C=C/C(C)=C/[C@@H]1CN1CCCCC1: 4 µg/mL
- C=C[C@]1(C)C[C@@H](OC(=O)CSCCN(CC)CC)[C@]2(C)[C@H](C)CC[C@]3(CCC(=O)[C@H]32)[C@@H](C)[C@@H]1O: > 32 µg/mL
